Where do these numbers come from? They come from PubChem BioAssay.

Assay: binders of probe aHhip on microarray, primary screen, stem cell growth factor project, biochemical, small-molecule microarray, fluorescence 635/667 (AID 1087);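 further: score merges spot fluorescence at 667nm with spot signal to noise ratio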
Conditions: higher = more signal
Each entry below carries its reported composite z-score.

# Molecule, composite z-score
data = [
    ("O=C1OCCC=C[C@H]2OC34C=CCN(c5ccc6ccccc6c5)C(=O)[C@H]3N(CCO)C(=O)[C@@H]4C12 (stereo partly drawn)", -0.672),
    ("N#Cc1ccc(NN2C(C(O)C3CC=CCC3)C=CC3C(=O)N(c4ccccc4)C(=O)C32)cc1 (stereo not drawn)", -0.0427),
    ("C=CC[C@@]12N=C(c3ccc(OCCCO)cc3)O[C@@H]1c1ccccc1N(CCC)C2=O", -0.0645),
    ("CN(C)CCCCNC(=O)[C@H]1C[C@H]2C(=O)NCC(=O)N2[C@H]1c1ccc(O)cc1", -0.407),
    ("O=C(NCc1ccccc1)[C@@H]1c2ccccc2C(=O)N(Cc2ccc(OC(F)(F)F)cc2)[C@H]1c1ccc(CO)cc1", 0.321),
    ("N#Cc1ccc(C(O)C2C=CC3C(=O)NC(=O)C3N2Nc2ccc(Cl)cc2Cl)cc1 (stereo not drawn)", -0.146),
    ("NC(=O)NCC#Cc1ccc2c(c1)[C@]1(C(=O)N2)[C@H](c2ccc(OCCO)cc2)N2[C@H](c3ccccc3)[C@H](c3ccccc3)OC(=O)[C@H]2[C@@H]1C(=O)NC[C@H](O)c1ccccc1", -0.134),
    ("CC(C)(C)N1CC=CC23O[C@@H]4/C=C\\CCCOC(=O)C4[C@H]2C(=O)N(CCCCCO)[C@@H]3C1=O (stereo partly drawn)", 0.176),
]
